Measured on: T1, human calcitonin receptor (human, UniProt P30988 25-474)
T1 sequence (looked up): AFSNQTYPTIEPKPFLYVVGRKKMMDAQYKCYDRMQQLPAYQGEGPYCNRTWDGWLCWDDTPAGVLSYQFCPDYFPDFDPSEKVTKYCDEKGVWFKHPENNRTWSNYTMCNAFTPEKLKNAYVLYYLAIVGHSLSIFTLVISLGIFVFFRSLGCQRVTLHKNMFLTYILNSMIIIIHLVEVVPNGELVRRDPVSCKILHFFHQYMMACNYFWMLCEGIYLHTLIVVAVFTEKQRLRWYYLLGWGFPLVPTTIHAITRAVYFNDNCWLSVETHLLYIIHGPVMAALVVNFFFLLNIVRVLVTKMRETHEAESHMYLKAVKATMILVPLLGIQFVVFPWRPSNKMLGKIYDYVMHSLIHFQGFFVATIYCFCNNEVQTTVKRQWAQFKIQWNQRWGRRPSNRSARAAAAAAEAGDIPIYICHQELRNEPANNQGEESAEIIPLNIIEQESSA
Protocol details: cell-based or functional assay
Numbered stars: 1 amine (or outer) side, 2 acyl side, 3 side chain; on linkers, the order of the positions; unused ones are H or OH. Side chains are listed from the residue outwards. * marks the point of attachment. C20 diacid = O=C(O)CCCCCCCCCCCCCCCCCCC(=O)*; C18 diacid = O=C(O)CCCCCCCCCCCCCCCCC(=O)*; γGlu = O=C(O)[C@H](CCC(=O)[*:2])N[*:1]; AEEA = NCCOCCOCC(=O)O
Measurement kind: hCTR funct. EC50 (pM)

Look over these answered cases.
[
  {
    "Binder": "{C18 diacid}-ASELSTAALGRLSAELHELATLPRTETGSGSP-NH2 [[N-terminal(C18 diacid), des1, 30S, 31G]mimylin]",
    "hCTR funct. EC50 (pM)": 17
  },
  {
    "Binder": "{C20 diacid-γGlu-AEEA}-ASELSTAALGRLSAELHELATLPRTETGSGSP-NH2 [[N-terminal(C20 diacid-gGlu-OEG), des1, 30S, 31G]mimylin]",
    "hCTR funct. EC50 (pM)": 18
  }
]

(P) {C20 diacid-γGlu}-ASELSTAALGHLSAELHELATLPRTETGSGSP-NH2 [[N-terminal(C20 diacid-gGlu), des1, 12H, 30S, 31G]mimylin]
(Q) Ac-ASELSTAALGRLSAELHK([γGlu-C20 diacid])LATLPRTETGSGSP-NH2 [[N-terminal(acetyl), des1, 19K(C20 diacid-gGlu), 30S, 31G]mimylin]
(R) Ac-ASELSTAALGRLSAK([γGlu-C20 diacid])LHELATLPRTETGSGSP-NH2 [[N-terminal(acetyl), des1, 16K(C20 diacid-gGlu), 30S, 31G]mimylin]
INPUT: Rank order required: hCTR funct. EC50 (pM), descending. In plain terms: list the labels in the order you were asked to.
OUTPUT: R, Q, P
(R: 28 pM, Q: 19 pM, P: 12 pM)
